Reported IC50 by item:
Test system: 922993-354-T-J3-PDC complex spheroids, viability, % test/control
Experiment: Anticancer human tumor 922993-354-T-J3-PDC patient-derived endometrial carcinoma cell line growth inhibition [CLK]
Settings: curve of first compound; second compound 0.0316 µM

# Compound, IC50
measured = [
    ("NC(=O)C(=Cn1cnc(-c2cc(C(F)(F)F)cc(C(F)(F)F)c2)n1)c1cncnc1 + CN1CCN(c2cc(C(=O)Nc3cc4cc(-c5cnn(C)c5)ccc4cn3)ccn2)CC1", "229 nM"),
    ("Nc1ccccc1NC(=O)c1ccc(CNC(=O)OCc2cccnc2)cc1 + CNC(=O)c1ccc(Nc2nc(OC3CCCC3)c3c(-c4ccc5nc(C)oc5c4)c[nH]c3n2)c(OC)c1", "> 10000 nM"),
    ("C=CC(=O)Nc1cc(Nc2nccc(-c3cn(C)c4ccccc34)n2)c(OC)cc1N(C)CCN(C)C + CNC(=O)c1ccc(Nc2nc(OC3CCCC3)c3c(-c4ccc5nc(C)oc5c4)c[nH]c3n2)c(OC)c1", "> 300 nM"),
]

---

Reported IC50 by item:
Tested on: 922993-354-T-J3-PDC complex spheroids, viability, % test/control
Experiment: Anticancer human tumor 922993-354-T-J3-PDC cell line growth inhibition [CLK];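 also: spheroids exposed to the agents for 7 days before readout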
Details: curve of first compound; second compound 3.16 µM
Attribute measured: IC50

# Compound, Measured value
data = [
    ("C=CC(=O)Nc1cc(Nc2nccc(-c3cn(C)c4ccccc34)n2)c(OC)cc1N(C)CCN(C)C + CNC(=O)c1ccc(Nc2nc(OC3CCCC3)c3c(-c4ccc5nc(C)oc5c4)c[nH]c3n2)c(OC)c1", "< 0.949 nM"),
    ("C#Cc1c(F)ccc2cc(O)cc(-c3ncc4c(N5CC6CCC(C5)N6)nc(OCC56CCCN5CC(F)C6)nc4c3F)c12 (stereo not given) + CN1CCN(c2cc(C(=O)Nc3cc4cc(-c5cnn(C)c5)ccc4cn3)ccn2)CC1", "< 31.6 nM"),
    ("CCN1CCN(Cc2ccc(Nc3ncc(F)c(-c4cc(F)c5nc(C)n(C(C)C)c5c4)n3)nc2)CC1 + CNC(=O)c1ccc(Nc2nc(OC3CCCC3)c3c(-c4ccc5nc(C)oc5c4)c[nH]c3n2)c(OC)c1", "< 3.16 nM"),
    ("COc1c(OCCCN2CCOCC2)ccc2c3n(c(=NC(=O)c4cnc(N)nc4)nc12)CCN3 + CNC(=O)c1ccc(Nc2nc(OC3CCCC3)c3c(-c4ccc5nc(C)oc5c4)c[nH]c3n2)c(OC)c1", "< 3.16 nM"),
    ("CCCS(=O)(=O)Nc1ccc(F)c(C(=O)c2c[nH]c3ncc(-c4ccc(Cl)cc4)cc23)c1F + CNC(=O)c1ccc(Nc2nc(OC3CCCC3)c3c(-c4ccc5nc(C)oc5c4)c[nH]c3n2)c(OC)c1", "< 31.6 nM"),
]

---

Test system: 922993-354-T-J3-PDC complex spheroids, viability, % test/control
Assay: Anticancer human tumor 922993-354-T-J3-PDC cell line growth inhibition [CLK]; active means viability on the fitted dose curve at most 10% of control; inactive means the rest;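 also: spheroids exposed to the agents for 7 days before readout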
Settings: second compound 10 µM; first compound 10 µM
Outcome codes: active, inactive

# Molecule, Target desc, Answer label
records = [
    ("CC1(C)CCC(CN2CCN(c3ccc(C(=O)NS(=O)(=O)c4ccc(NCC5CCOCC5)c([N+](=O)[O-])c4)c(Oc4cnc5[nH]ccc5c4)c3)CC2)=C(c2ccc(Cl)cc2)C1 + CN1CCN(c2cc(C(=O)Nc3cc4cc(-c5cnn(C)c5)ccc4cn3)ccn2)CC1", "922993-354-T-J3-PDC complex spheroids, viability, % test/control", "active"),
    ("COC1C=CCC(C)C(C)S(=O)(=O)NC(=O)c2ccc3c(c2)N(CC2CCC21)CC1(CCCc2cc(Cl)ccc21)CO3 (stereo not given) + CN1CCN(c2cc(C(=O)Nc3cc4cc(-c5cnn(C)c5)ccc4cn3)ccn2)CC1", "922993-354-T-J3-PDC complex spheroids, viability, % test/control", "active"),
    ("CC1COCCN1c1cc(C2(S(C)(=N)=O)CC2)nc(-c2ccnc3[nH]ccc23)n1 (stereo not given) + CN1CCN(c2cc(C(=O)Nc3cc4cc(-c5cnn(C)c5)ccc4cn3)ccn2)CC1", "922993-354-T-J3-PDC complex spheroids, viability, % test/control", "active"),
    ("CC(=O)O[C@H]1C(=O)[C@@]2(C)[C@H]([C@H](OC(=O)c3ccccc3)[C@]3(O)C[C@H](OC(=O)[C@H](O)[C@@H](NC(=O)c4ccccc4)c4ccccc4)C(C)=C1C3(C)C)[C@]1(OC(C)=O)CO[C@@H]1C[C@@H]2O + CNC(=O)c1ccc(Nc2nc(OC3CCCC3)c3c(-c4ccc5nc(C)oc5c4)c[nH]c3n2)c(OC)c1", "922993-354-T-J3-PDC complex spheroids, viability, % test/control", "inactive"),
    ("O=C(c1cc(Cc2n[nH]c(=O)c3ccccc23)ccc1F)N1CCN(C(=O)C2CC2)CC1 + CNC(=O)c1ccc(Nc2nc(OC3CCCC3)c3c(-c4ccc5nc(C)oc5c4)c[nH]c3n2)c(OC)c1", "922993-354-T-J3-PDC complex spheroids, viability, % test/control", "inactive"),
    ("O=C(c1cc(Cc2n[nH]c(=O)c3ccccc23)ccc1F)N1CCN(C(=O)C2CC2)CC1 + CN1CCN(c2cc(C(=O)Nc3cc4cc(-c5cnn(C)c5)ccc4cn3)ccn2)CC1", "922993-354-T-J3-PDC complex spheroids, viability, % test/control", "active"),
    ("Nc1ccccc1NC(=O)c1ccc(CNC(=O)OCc2cccnc2)cc1 + CN1CCN(c2cc(C(=O)Nc3cc4cc(-c5cnn(C)c5)ccc4cn3)ccn2)CC1", "922993-354-T-J3-PDC complex spheroids, viability, % test/control", "active"),
    ("COc1ccc([C@@H](O)c2cc(-c3ncnc4cc(N5CCOCC5)ccc34)c(F)cc2Cl)nn1 + CN1CCN(c2cc(C(=O)Nc3cc4cc(-c5cnn(C)c5)ccc4cn3)ccn2)CC1", "922993-354-T-J3-PDC complex spheroids, viability, % test/control", "active"),
    ("CC(Nc1ccc2c(c1)OCCn1cc(N3C(=O)OCC3C(F)F)nc1-2)C(N)=O (stereo not given) + CNC(=O)c1ccc(Nc2nc(OC3CCCC3)c3c(-c4ccc5nc(C)oc5c4)c[nH]c3n2)c(OC)c1", "922993-354-T-J3-PDC complex spheroids, viability, % test/control", "active"),
    ("O=c1[nH]cc(F)c(=O)[nH]1 + CN1CCN(c2cc(C(=O)Nc3cc4cc(-c5cnn(C)c5)ccc4cn3)ccn2)CC1", "922993-354-T-J3-PDC complex spheroids, viability, % test/control", "active"),
]

---

Test system: 922993-354-T-J3-PDC complex spheroids, viability, % test/control
Assay: Anticancer human tumor 922993-354-T-J3-PDC cell line growth inhibition [CLK];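 also: spheroids exposed to the agents for 7 days before readout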
Details: second compound 3.16 µM; first compound 0.00949 µM; stronger effect = lower value
Just a reminder that ties go to FALSE: only viability, T/C strictly below 1% counts as TRUE.

# Compound, Target desc, Answer label
rows = [
    ("CC(C)CC(NC(=O)C(Cc1ccccc1)NC(=O)c1cnccn1)B(O)O (stereo unspecified) + CNC(=O)c1ccc(Nc2nc(OC3CCCC3)c3c(-c4ccc5nc(C)oc5c4)c[nH]c3n2)c(OC)c1", "922993-354-T-J3-PDC complex spheroids, viability, % test/control", "FALSE"),
    ("C=CC(=O)Nc1cc(Nc2nccc(-c3cn(C)c4ccccc34)n2)c(OC)cc1N(C)CCN(C)C + CNC(=O)c1ccc(Nc2nc(OC3CCCC3)c3c(-c4ccc5nc(C)oc5c4)c[nH]c3n2)c(OC)c1", "922993-354-T-J3-PDC complex spheroids, viability, % test/control", "FALSE"),
    ("NC(=O)C(=Cn1cnc(-c2cc(C(F)(F)F)cc(C(F)(F)F)c2)n1)c1cncnc1 + CN1CCN(c2cc(C(=O)Nc3cc4cc(-c5cnn(C)c5)ccc4cn3)ccn2)CC1", "922993-354-T-J3-PDC complex spheroids, viability, % test/control", "TRUE"),
    ("C=CC(=O)Nc1cc(Nc2nccc(-c3cn(C)c4ccccc34)n2)c(OC)cc1N(C)CCN(C)C + CN1CCN(c2cc(C(=O)Nc3cc4cc(-c5cnn(C)c5)ccc4cn3)ccn2)CC1", "922993-354-T-J3-PDC complex spheroids, viability, % test/control", "TRUE"),
    ("NC(=O)C(=Cn1cnc(-c2cc(C(F)(F)F)cc(C(F)(F)F)c2)n1)c1cncnc1 + CNC(=O)c1ccc(Nc2nc(OC3CCCC3)c3c(-c4ccc5nc(C)oc5c4)c[nH]c3n2)c(OC)c1", "922993-354-T-J3-PDC complex spheroids, viability, % test/control", "FALSE"),
]
